Where do the numbers come from? From paper PMC10510381.

Can you tell me pIC50 for the items I'm about to list?
Target: SARS-CoV-2 M^pro (Severe acute respiratory syndrome coronavirus 2, UniProt P0DTD1)
Assay: biochemical
Test Parameters: 15-min treatment of M^pro (0.5 μM), FRET substrate 20 μM; both duplicate values given; read-out: IC50
pIC50: −log10 of the molar value. Residues, ends and D or L forms follow the SMILES beside them. *: point of attachment. Cbz = O=C(OCc1ccccc1)*

These solved cases illustrate the format of a correct answer.
INSERT INTO measurements (molecule, measured) VALUES
  ('C#C[C@H](CCC(N)=O)NC(=O)[C@H](CC(C)C)NC(=O)c1cc2c(OC)cccc2[nH]1', 4.66),
  ('CC(C)C[C@H](NC(=O)OCc1ccccc1)C(=O)N[C@H](C=O)CCC(N)=O [Compound 1e] (Cbz-Leu-Gln-aldehyde)', '< 4.10'),
  ('CC(C)C[C@H](NC(=O)OCc1ccccc1)C(=O)N[C@H](C#N)CCC(N)=O', '< 4.10');

// batch mode: one pIC50 value per listed entry
1. CC(C)(C)[C@H](NC(=O)C(F)(F)F)C(=O)N1C[C@H]2[C@@H]([C@H]1C(=O)N[C@@H](C[C@@H]1CCNC1=O)C(N)=O)C2(C)C
2. CC(C)C[C@H](NC(=O)OCc1ccccc1)C(=O)N[C@@H](CCC(N)=O)C(=O)C(=O)NCc1ccccc1

1: < 4.10; 2: < 4.10

---

Target: SARS-CoV-2 M^pro (Severe acute respiratory syndrome coronavirus 2, UniProt P0DTD1)
Assay: biochemical
Test Parameters: 15-min pre-incubation; read-out: IC50 (average of duplicate)
Readout Kind: pIC50
One number for each entry, as −log10 of the molar value.

Quick one: pIC50 for CNS(=O)(=O)/C=C/[C@H](CCC(N)=O)NC(=O)[C@H](CC(C)C)NC(=O)OCc1ccccc1 [Compound 1c] ?
4.33
